- Test system: M14
- assayMethodText: NCI tumour cell line growth inhibition, 48 h
Calls of active or inactive are those of the source. No stated cut-off is given here; in the data, active = GI50 up to about 1.1 µM and inactive = higher.
Outcomes: 1 for active, 0 for inactive

compound	classAssignment
C=CC1=C(C)c2cc3[nH]c(c4c5nc(cc6[nH]c(cc1n2)c(C)c6CC)C=C5C(=O)C4C(=O)OC)C(CCC(=O)OC/C=C(\C)CCCC(C)CCCC(C)CCCC(C)C)C3C.C=CC1=C(C)c2cc3[nH]c(c4c5nc(cc6[nH]c(cc1n2)c(C=O)c6CC)C=C5C(=O)C4C(=O)OC)C(CCC(=O)OC/C=C(\C)CCCC(C)CCCC(C)CCCC(C)C)C3C (centres undefined)	0
CON(C)C(=O)C(Cc1ccccc1)NC(=O)OC(C)(C)C (centres undefined)	0
O=[N+]([O-])C1C2C=CC(C2)[C@H]1c1ccc(Cl)cc1Cl (some centres undefined)	0
COc1ccc2c(c1)Cc1c(NCCN(C)C)ccc(C(=O)NCCCN(C)CCCNC(=O)c3ccc(NCCN(C)C)c4c3Nc3ccc(OC)cc3C4)c1N2	1
Nc1ncnc2c1nc(Cl)n2[C@@H]1O[C@@H]2COP(=O)(O)O[C@H]2[C@H]1O [TOCLADESINE]	0
Cc1ccnn1CCc1ccc(Cl)cc1Cl	0
O=S(=O)(O)c1cc(/N=N/c2c(O)ccc3ccccc23)cc2c(S(=O)(=O)O)cccc12	0
CCCNC(=O)NNC(=O)c1c[nH]c2nc(C)ccc2c1=O	0
CC(=O)OC1C(O)COC(O[C@H]2CC[C@]34C[C@]35CC[C@]3(C)C([C@@]6(C)CC[C@@H](C(C)(C)O)O6)[C@@H](O)C[C@@]3(C)C5C[C@H](OC3OCC(O)C(O)C3O)[C@H]4C2(C)C)C1OC1OCC(O)C(O)C1O (some centres undefined)	0
